IC50 for assorted compounds
Molecular target: Protein deacetylase HDAC6 (Homo sapiens, UniProt Q9UBN7)
Sequence (Q9UBN7 whole entry): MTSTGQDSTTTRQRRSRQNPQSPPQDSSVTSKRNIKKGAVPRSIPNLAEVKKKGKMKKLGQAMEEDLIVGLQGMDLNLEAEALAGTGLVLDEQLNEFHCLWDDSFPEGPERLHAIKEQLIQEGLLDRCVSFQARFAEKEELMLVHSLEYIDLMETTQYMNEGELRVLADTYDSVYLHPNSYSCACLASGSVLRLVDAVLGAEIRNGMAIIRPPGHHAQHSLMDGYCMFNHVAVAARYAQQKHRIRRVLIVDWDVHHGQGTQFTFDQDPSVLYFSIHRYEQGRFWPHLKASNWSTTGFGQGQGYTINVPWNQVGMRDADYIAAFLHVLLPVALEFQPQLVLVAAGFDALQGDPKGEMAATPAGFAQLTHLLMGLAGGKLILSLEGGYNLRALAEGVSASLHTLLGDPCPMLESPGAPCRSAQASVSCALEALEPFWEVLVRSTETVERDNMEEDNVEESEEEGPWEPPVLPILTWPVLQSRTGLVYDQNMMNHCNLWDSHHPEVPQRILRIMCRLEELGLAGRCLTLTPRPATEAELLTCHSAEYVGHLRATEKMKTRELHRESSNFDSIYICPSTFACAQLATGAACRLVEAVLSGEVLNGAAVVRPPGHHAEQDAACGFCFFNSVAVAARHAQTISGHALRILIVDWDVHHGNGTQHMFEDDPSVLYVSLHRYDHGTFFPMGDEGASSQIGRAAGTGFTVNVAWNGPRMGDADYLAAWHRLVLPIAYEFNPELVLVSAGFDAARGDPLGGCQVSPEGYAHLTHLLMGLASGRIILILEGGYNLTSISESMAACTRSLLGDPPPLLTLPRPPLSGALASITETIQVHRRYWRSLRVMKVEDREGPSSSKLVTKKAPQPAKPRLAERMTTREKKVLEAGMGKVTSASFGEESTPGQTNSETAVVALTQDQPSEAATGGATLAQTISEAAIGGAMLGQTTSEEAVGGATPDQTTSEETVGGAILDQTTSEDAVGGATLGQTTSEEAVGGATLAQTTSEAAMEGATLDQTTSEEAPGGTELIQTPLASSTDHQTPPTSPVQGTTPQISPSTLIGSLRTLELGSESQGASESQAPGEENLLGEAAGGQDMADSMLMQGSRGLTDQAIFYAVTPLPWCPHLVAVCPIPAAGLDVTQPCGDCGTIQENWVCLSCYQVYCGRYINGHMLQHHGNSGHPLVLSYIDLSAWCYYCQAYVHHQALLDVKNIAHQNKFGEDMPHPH
Assay: Inhibition of human recombinant HDAC6 preincubated for 10 mins followed by addition of substrate fluor De Lys SIRT1 deacetylase measured after 30 mins by fluorescent plate reader analysis

Nc1ccccc1NC(=O)c1ccc(CNC(=O)c2n[nH]cc2NC(=O)c2c(Cl)cccc2Cl)cc1 :: > 1000 nM

Proceed to the following item.
What does the data say about its IC50? Entry: Nc1ccccc1NC(=O)Cc1ccc(NC(=O)c2n[nH]cc2NC(=O)c2c(Cl)cccc2Cl)cc1 > 1000 nM

----------
IC50 for assorted compounds
target: CDK2/Cyclin A2 (Homo sapiens); assay: Inhibition of recombinant human full length CDK2/cyclin A2 incubated for 10 mins by ADP-Glo reagent assay
Answer format: number, then unit.

Nc1ccccc1NC(=O)c1ccc(CNC(=O)c2n[nH]cc2NC(=O)c2c(Cl)cccc2Cl)cc1 :: 0.3 nM

What does the data say about its IC50? Entry: Nc1ccccc1NC(=O)Cc1ccc(NC(=O)c2n[nH]cc2NC(=O)c2c(Cl)cccc2Cl)cc1 0.56 nM

----------
MRT inf for assorted compounds
test: MRT (0 to infinity) in ICR mouse at 20 mg/kg, ip by LC-MS/MS analysis; assay type: ADME, organism-based; settings: in vivo
Please state the figure in h; there is no need to write the unit.

Nc1ccccc1NC(=O)Cc1ccc(NC(=O)c2n[nH]cc2NC(=O)c2c(Cl)cccc2Cl)cc1 :: 2.36

What does the data say about its MRT inf? Entry: Nc1ccccc1NC(=O)c1ccc(CNC(=O)c2n[nH]cc2NC(=O)c2c(Cl)cccc2Cl)cc1 3.31

----------
test system: NCI-H460; test: cells; type: functional; details: Homo sapiens, time 72 hrs, read-out: GI
inhibition of growth at 2 µM for assorted compounds
Answer format: number, then unit.

Field: example entries. Status: answers known.
O=C(Cc1ccc(NC(=O)c2n[nH]cc2NC(=O)c2ccccc2Cl)cc1)NO :: 9.04%
Nc1ccccc1NC(=O)c1ccc(CNC(=O)c2n[nH]cc2NC(=O)c2ccccc2Cl)cc1 :: 5.54%
Nc1ccccc1NC(=O)c1ccc(CNC(=O)c2n[nH]cc2NC(=O)c2ccccc2)cc1 :: 11.8%
O=C(CCCCCNC(=O)c1n[nH]cc1NC(=O)c1c(Cl)cccc1Cl)NO :: 15.1%
Nc1ccccc1NC(=O)Cc1ccc(NC(=O)c2n[nH]cc2NC(=O)c2ccccc2)cc1 :: 0.37%
COc1ccccc1C(=O)Nc1c[nH]nc1C(=O)NCc1ccc(C(=O)NO)cc1 :: 16%
Nc1ccccc1NC(=O)Cc1ccc(NC(=O)c2n[nH]cc2NC(=O)c2c(F)cccc2F)cc1 :: 3.52%
O=C(CCCCCNC(=O)c1n[nH]cc1NC(=O)c1c(F)cccc1F)NO :: 22.9%
Nc1ccccc1NC(=O)Cc1ccc(NC(=O)c2n[nH]cc2NC(=O)c2ccccc2Cl)cc1 :: 3.08%
Nc1ccccc1NC(=O)Cc1ccc(NC(=O)c2n[nH]cc2NC(=O)c2c(F)cccc2Cl)cc1 :: 16.4%

What does the data say about its inhibition of growth at 2 µM? Entry: O=C(Cc1ccc(NC(=O)c2n[nH]cc2NC(=O)c2c(Cl)cccc2Cl)cc1)NO 10.5%

What does the data say about its inhibition of growth at 2 µM? Entry: Nc1ccccc1NC(=O)Cc1ccc(NC(=O)c2n[nH]cc2NC(=O)c2c(Cl)cccc2Cl)cc1 57.3%

What does the data say about its inhibition of growth at 2 µM? Entry: O=C(NO)c1ccc(CNC(=O)c2n[nH]cc2NC(=O)c2c(Cl)cccc2Cl)cc1 45.4%

What does the data say about its inhibition of growth at 2 µM? Entry: O=C(NO)c1ccc(CNC(=O)c2n[nH]cc2NC(=O)c2ccccc2F)cc1 23.5%

What does the data say about its inhibition of growth at 2 µM? Entry: COc1ccccc1C(=O)Nc1c[nH]nc1C(=O)Nc1ccc(CC(=O)Nc2ccccc2N)cc1 3.12%

What does the data say about its inhibition of growth at 2 µM? Entry: O=C(Nc1ccc(F)cc1)c1n[nH]cc1NC(=O)c1c(F)cccc1F 21.3%

What does the data say about its inhibition of growth at 2 µM? Entry: O=C(CCCCCCNC(=O)c1n[nH]cc1NC(=O)c1c(F)cccc1F)NO 3.57%

What does the data say about its inhibition of growth at 2 µM? Entry: O=C(CCCCCCNC(=O)c1n[nH]cc1NC(=O)c1c(F)cccc1Cl)NO 0.88%

What does the data say about its inhibition of growth at 2 µM? Entry: Nc1ccc(F)cc1NC(=O)c1ccc(CNC(=O)/C=C/c2cccnc2)cc1 1.73%

What does the data say about its inhibition of growth at 2 µM? Entry: O=C(Cc1ccc(NC(=O)c2n[nH]cc2NC(=O)c2c(F)cccc2F)cc1)NO 0.04%

What does the data say about its inhibition of growth at 2 µM? Entry: O=C(Cc1ccc(NC(=O)c2n[nH]cc2NC(=O)c2c(F)cccc2Cl)cc1)NO 12.5%

What does the data say about its inhibition of growth at 2 µM? Entry: Nc1ccccc1NC(=O)c1ccc(CNC(=O)c2n[nH]cc2NC(=O)c2ccccc2F)cc1 7.25%

----------
molecular target: CDK6/cyclin D3 (Homo sapiens, UniProt Q00534); test: Inhibition of recombinant human full length CDK6/cyclin D3 incubated for 10 mins by ADP-Glo reagent assay
Sequence (P30281 whole entry): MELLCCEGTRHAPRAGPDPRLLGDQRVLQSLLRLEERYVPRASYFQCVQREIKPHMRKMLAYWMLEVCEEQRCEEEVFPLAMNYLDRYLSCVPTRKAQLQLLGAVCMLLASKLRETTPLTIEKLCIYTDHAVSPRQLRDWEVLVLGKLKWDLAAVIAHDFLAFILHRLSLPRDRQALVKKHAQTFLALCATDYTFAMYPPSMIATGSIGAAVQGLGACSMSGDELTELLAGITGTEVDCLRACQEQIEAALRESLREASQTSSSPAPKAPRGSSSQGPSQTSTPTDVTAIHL
Sequence (Q00534 whole entry): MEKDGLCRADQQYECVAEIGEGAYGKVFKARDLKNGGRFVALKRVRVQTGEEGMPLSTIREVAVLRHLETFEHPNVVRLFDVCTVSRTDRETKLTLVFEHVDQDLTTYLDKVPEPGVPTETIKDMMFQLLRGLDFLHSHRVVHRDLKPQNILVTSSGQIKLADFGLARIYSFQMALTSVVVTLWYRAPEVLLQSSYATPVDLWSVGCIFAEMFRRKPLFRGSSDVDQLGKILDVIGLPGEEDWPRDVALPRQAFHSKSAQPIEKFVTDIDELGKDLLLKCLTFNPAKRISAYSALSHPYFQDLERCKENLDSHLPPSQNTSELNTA
pIC50: −log10 of the molar value.
endpoint: pIC50

O=C(Nc1ccc(F)cc1)c1n[nH]cc1NC(=O)c1c(F)cccc1F :: < 6.00
Nc1ccccc1NC(=O)c1ccc(CNC(=O)c2n[nH]cc2NC(=O)c2c(Cl)cccc2Cl)cc1 :: < 6.00

Proceed to the following item.
What does the data say about its pIC50? Entry: Nc1ccccc1NC(=O)Cc1ccc(NC(=O)c2n[nH]cc2NC(=O)c2c(Cl)cccc2Cl)cc1 < 6.00

----------
t1/2 for assorted compounds
assay: Half life in ICR mouse at 20 mg/kg, ip by LC-MS/MS analysis; type: ADME, organism-based; settings: in vivo
Answer format: number, then unit.

Nc1ccccc1NC(=O)Cc1ccc(NC(=O)c2n[nH]cc2NC(=O)c2c(Cl)cccc2Cl)cc1 :: 97.8 min

Proceed to the following item.
What does the data say about its t1/2? Entry: Nc1ccccc1NC(=O)c1ccc(CNC(=O)c2n[nH]cc2NC(=O)c2c(Cl)cccc2Cl)cc1 157 min

----------
system: NCI-H460; experiment: cells; format: functional; conditions: Homo sapiens, time 72 hrs, read-out: GI
endpoint: inhibition of growth at 2 µM (%)
Please state the figure in %; there is no need to write the unit.

Field: example entries. Status: answers known.
O=C(CCCCNC(=O)c1n[nH]cc1NC(=O)c1c(F)cccc1F)NO :: 0.4
O=C(Cc1ccc(NC(=O)c2n[nH]cc2NC(=O)c2ccccc2F)cc1)NO :: 9.5

What does the data say about its inhibition of growth at 2 µM? Entry: O=C(CCCCCCNC(=O)c1n[nH]cc1NC(=O)c1c(Cl)cccc1Cl)NO 17

What does the data say about its inhibition of growth at 2 µM? Entry: O=C(NO)c1ccc(CNC(=O)c2n[nH]cc2NC(=O)c2c(F)cccc2F)cc1 0.46

What does the data say about its inhibition of growth at 2 µM? Entry: COc1ccccc1C(=O)Nc1c[nH]nc1C(=O)NCc1ccc(C(=O)Nc2ccccc2N)cc1 5.73
